Listed molecules paired with reported pIC50
- target.under.test: DGKζ (Homo sapiens (Human), UniProt Q13574)
- Sequence (Q13574 other isoform, or with tags, fused parts or gaps): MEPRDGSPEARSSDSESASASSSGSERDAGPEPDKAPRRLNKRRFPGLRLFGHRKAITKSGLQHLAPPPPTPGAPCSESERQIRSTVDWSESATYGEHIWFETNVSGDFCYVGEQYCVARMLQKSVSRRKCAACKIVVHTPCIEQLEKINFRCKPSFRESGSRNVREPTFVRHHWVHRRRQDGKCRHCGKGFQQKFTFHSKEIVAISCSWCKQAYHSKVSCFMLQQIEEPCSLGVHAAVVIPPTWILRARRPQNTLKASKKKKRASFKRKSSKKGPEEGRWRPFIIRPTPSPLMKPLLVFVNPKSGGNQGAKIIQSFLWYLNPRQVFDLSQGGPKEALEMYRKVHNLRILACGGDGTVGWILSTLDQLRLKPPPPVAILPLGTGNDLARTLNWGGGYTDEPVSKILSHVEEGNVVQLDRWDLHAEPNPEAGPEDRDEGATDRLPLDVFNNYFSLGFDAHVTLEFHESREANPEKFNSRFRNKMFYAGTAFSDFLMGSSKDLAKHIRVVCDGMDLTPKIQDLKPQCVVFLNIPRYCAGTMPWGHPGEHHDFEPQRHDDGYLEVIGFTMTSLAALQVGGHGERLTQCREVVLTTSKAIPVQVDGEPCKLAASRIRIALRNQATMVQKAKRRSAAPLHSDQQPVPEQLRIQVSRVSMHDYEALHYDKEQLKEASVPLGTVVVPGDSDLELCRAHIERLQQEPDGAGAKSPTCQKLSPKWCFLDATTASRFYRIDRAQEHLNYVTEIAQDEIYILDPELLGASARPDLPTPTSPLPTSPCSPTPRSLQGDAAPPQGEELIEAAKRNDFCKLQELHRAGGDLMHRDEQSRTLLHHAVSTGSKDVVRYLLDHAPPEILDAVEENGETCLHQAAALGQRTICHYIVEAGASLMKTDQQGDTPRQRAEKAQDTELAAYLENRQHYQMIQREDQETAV
- procedure.details: Biochemical DGK IC50 assay, DGKζ ADP-Glo assay
- condition.label: 0.5 nM enzyme, 140 μM ATP, 80 μM DAG; read-out: DGKζ ADP-Glo assay IC50
// pIC50 here means minus log10 of the molar concentration (mol/L)

Consider the worked cases shown below.
| molecule | target.under.test | observed.result |
| --- | --- | --- |
| C[C@@H]1CN(c2cc(=O)n(C)c3c(C(F)(F)F)n(CC#N)nc23)[C@@H](C)CN1[C@@H](C)c1ccc2nccnc2c1 (single isomer, unassigned) | DGKζ (Homo sapiens (Human), UniProt Q13574) | 5.87 |
| CC[C@H]1CN(C(C)c2ccncn2)[C@H](CC)CN1c1cc(=O)n(C)c2cn(CC#N)nc12 (stereo partly drawn) | DGKζ (Homo sapiens (Human), UniProt Q13574) | 5.05 |
| CC[C@H]1CN(C(C)c2cc3ccccn3n2)[C@H](CC)CN1c1cc(=O)n(C)c2cn(CC#N)nc12 (stereo partly drawn) | DGKζ (Homo sapiens (Human), UniProt Q13574) | 6.70 |
| CC[C@H]1CN(C(C)c2ccc3cnccc3c2)[C@H](CC)CN1c1cc(=O)n(C)c2cn(CC#N)nc12 (stereo partly drawn) | DGKζ (Homo sapiens (Human), UniProt Q13574) | 7.14 |
| Cc1ccc(C(c2ccc(C)cc2)N2C[C@H](C)N(c3cc(=O)n(C)c4cn(CC#N)nc34)C[C@H]2C)cc1 | DGKζ (Homo sapiens (Human), UniProt Q13574) | 6.68 |

Next molecule, please.
# molecule CC[C@H]1CN(C(C)c2ccc(F)cc2OC)[C@H](CC)CN1c1cc(=O)n(C)c2cn(CC#N)nc12 (single isomer, unassigned) [Compound A71a] ; its pIC50 = 5.68

---

- target.under.test: DGKα (Homo sapiens (Human))
- Sequence (P23743 whole entry): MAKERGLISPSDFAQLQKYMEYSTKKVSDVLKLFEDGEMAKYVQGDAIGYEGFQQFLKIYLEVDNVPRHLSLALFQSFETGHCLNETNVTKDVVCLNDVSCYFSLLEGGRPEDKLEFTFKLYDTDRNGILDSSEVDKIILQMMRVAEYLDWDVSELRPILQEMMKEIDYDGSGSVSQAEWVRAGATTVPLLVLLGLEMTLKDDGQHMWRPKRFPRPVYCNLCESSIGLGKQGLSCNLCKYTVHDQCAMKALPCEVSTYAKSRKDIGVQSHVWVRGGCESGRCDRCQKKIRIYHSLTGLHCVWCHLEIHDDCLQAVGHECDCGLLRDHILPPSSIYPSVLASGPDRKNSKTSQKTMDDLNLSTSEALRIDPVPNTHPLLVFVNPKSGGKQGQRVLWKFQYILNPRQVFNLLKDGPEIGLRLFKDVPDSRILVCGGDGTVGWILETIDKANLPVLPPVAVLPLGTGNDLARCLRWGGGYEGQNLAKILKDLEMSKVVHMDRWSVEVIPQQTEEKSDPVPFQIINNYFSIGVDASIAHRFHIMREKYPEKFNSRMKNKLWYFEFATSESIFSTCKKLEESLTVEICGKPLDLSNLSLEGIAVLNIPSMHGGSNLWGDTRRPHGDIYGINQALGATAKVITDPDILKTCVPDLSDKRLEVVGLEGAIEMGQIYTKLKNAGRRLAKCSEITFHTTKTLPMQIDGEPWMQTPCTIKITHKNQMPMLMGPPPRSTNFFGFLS
Values of IC50 strictly less than 5 µM map to y, and values of at least 5 µM map to n.

A selection of reference data follows.
| compound | class.name |
| --- | --- |
| CC[C@H]1CN(C(C)c2ccc3ncccc3c2)[C@H](CC)CN1c1cc(=O)n(C)c2cn(CC#N)nc12 (stereo partly drawn) [Compound A60] | y |
| CC[C@H]1CN(C(C)c2ccc(F)cc2C#N)[C@H](CC)CN1c1cc(=O)n(C)c2cn(CC#N)nc12 (single isomer, unassigned) [Compound A224b] | y |
| CC[C@H]1CN(C(C)c2nc3ccccc3n2CC)[C@H](CC)CN1c1cc(=O)n(C)c2cn(CC#N)nc12 (stereo partly drawn) [Compound A144] | n |

Lab note: IC50 threshold 5 µM. Does this compound come in strictly under it? Cc1cnc2cc([C@H](C)N3C[C@H](C)N(c4cc(=O)n(C)c5cn(CC#N)nc45)C[C@H]3C)ccc2n1 (single isomer, unassigned) [Compound A269a] n

Hi there! Is IC50 for CC(c1ccc2c(c1)OCCO2)N1C[C@H](C)N(c2cc(=O)n(C)c3cn(CC#N)nc23)C[C@H]1C (single isomer, unassigned) [Compound A43b] below 5 µM, do you know? n

Please check: IC50 for CC[C@H]1CN(C(C)c2c(C)cccc2C(F)(F)F)[C@H](CC)CN1c1cc(=O)n(C)c2cn(CC#N)nc12 (stereo partly drawn) [Compound A117] , strictly under 5 µM or not? n

I wonder whether CC[C@H]1CN(C(C)c2ncc(F)cc2F)[C@H](CC)CN1c1cc(=O)n(C)c2cn(CC#N)nc12 (stereo partly drawn) [Compound A148] has IC50 below 5 µM. Can you tell? y

For CC[C@H]1CN(C(C)c2ncc(Cl)n2CC)[C@H](CC)CN1c1cc(=O)n(C)c2cn(CC#N)nc12 (single isomer, unassigned) [Compound A187b] , is the recorded IC50 below the cut-off of 5 µM? n

In plain terms, does CC[C@H]1CN(C(C)c2ccc(C(F)(F)F)cn2)[C@H](CC)CN1c1cc(=O)n(C)c2cn(CC#N)nc12 (single isomer, unassigned) [Compound A348a] come in under 5 µM for IC50? y

Is it true that IC50 reported for CC[C@H]1CN(C(C)c2ncc(OC(F)(F)F)cc2F)[C@H](CC)CN1c1cc(=O)n(C)c2cn(CC#N)nc12 (single isomer, unassigned) [Compound A362b] is less than 5 µM? y

Here's an entry: CC[C@H]1CN(C(C)c2ccc(C3CC3)nc2)[C@H](CC)CN1c1cc(=O)n(C)c2cn(CC#N)nc12 (stereo partly drawn) [Compound A350] . Is its IC50 below 5 µM? y

Where these numbers come from: patent US20240270751A1
